# subject.of.test: human TLR9 (Homo sapiens)
# Construct: endogenous in cells; host or cells: primary human B cells (CD19 microbeads) from buffy coats of healthy donors
# test: Inhibition of human TLR9 in human B cells (IL-6 ELISA)
# Assay type: cell-based
# measurement.conditions: human B cells, agonist 1018 ISS 1 μM, IL-6 readout, 48 hours; range about 0.01 to 10 μM; read-out: Human TLR9 IC50
measure: IC50 (nM)
// units = nM; emit number, no label

> print(dat)
                                   compound  measure  quantitative.readout
1  Cc1ccc(-n2nc3c(N4CCC(C(=O)N5CCC(CN6CCOCC6)C5)CC4)nnc(C)c3c2C)cc1 (stereo not shown)     IC50                   150
2  CCCN1CCN(C(=O)C2CCN(c3nnc(C)c4c(C)n(-c5ccccc5)nc34)CC2)CC1 [64x]     IC50                    13
3  Cc1ccc(-n2nc3c(N4CCC(C(=O)NC5CCN(C)CC5)CC4)nnc(C)c3c2C)cc1     IC50                   137

Missing value: IC50, human TLR9 (Homo sapiens), entry CNC(=O)C1CCN(c2nnc(C)c3c(C)n(-c4ccc(C)cc4)nc23)C1 (stereo not shown) . Fill in?
9370

---

# subject.of.test: human TLR8 (Homo sapiens, UniProt Q9NR97)
# Construct: endogenous in cells; host or cells: primary human monocytes (CD14 microbeads) from buffy coats of healthy donors
# Sequence (Q9NR97 27-1041): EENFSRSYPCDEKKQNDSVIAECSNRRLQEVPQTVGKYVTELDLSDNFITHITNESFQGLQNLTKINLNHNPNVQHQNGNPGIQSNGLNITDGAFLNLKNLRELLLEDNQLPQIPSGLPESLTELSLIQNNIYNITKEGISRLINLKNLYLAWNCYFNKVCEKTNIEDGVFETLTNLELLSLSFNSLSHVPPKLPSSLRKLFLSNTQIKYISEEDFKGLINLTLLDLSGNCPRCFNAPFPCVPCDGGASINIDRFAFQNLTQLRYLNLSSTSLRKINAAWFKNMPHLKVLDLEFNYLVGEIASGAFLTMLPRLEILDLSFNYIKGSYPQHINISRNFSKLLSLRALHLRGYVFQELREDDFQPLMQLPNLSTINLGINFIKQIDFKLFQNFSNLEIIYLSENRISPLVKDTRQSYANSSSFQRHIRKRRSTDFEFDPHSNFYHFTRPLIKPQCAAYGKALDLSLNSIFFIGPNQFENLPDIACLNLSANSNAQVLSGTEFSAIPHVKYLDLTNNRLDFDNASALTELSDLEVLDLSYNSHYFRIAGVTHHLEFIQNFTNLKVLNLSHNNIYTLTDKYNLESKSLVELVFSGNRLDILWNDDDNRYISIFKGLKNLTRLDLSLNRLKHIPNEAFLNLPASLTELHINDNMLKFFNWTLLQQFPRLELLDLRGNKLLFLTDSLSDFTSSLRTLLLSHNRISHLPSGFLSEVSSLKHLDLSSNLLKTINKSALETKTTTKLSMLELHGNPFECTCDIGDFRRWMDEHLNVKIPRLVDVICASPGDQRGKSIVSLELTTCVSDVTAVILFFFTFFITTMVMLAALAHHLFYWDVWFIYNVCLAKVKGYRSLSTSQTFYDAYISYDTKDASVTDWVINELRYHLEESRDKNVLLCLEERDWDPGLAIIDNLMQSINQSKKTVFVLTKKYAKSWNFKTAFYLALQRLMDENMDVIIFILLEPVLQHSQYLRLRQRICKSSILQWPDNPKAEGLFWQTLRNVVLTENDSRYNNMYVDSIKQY
# test: Inhibition of human TLR8 in human monocytes (TNF-alpha / IL-1 beta ELISA)
# Assay type: cell-based
# measurement.conditions: human monocytes, agonist ORN8L 100 μg/mL, TNF-alpha readout, 24 hours; read-out: Human TLR8 IC50 TNF-a
pIC50: −log10 of the molar value.
measure: pIC50

> print(dat)
                                   compound  result
1  Cc1ccc(-n2nc3c(N4CCC(C(=O)NCCN5CCOCC5)CC4)nnc(C)c3c2C)cc1 [17x]  ≤ 4.70
2  Cc1ccc(-n2nc3c(N4CCC(C(=O)N5CCC(CN(C)Cc6ccccc6)C5)CC4)nnc(C)c3c2C)cc1 (stereo not shown)    5.93
3  Cc1nnc(N2CCC(C(=O)NCCN3CCOCC3)CC2)c2nn(-c3ccccc3)c(C)c12 [32x]  < 5.00

Which value of pIC50 has been reported for CCN1CCCC1CNC(=O)C1CCN(c2nnc(C)c3c(C)n(-c4ccccc4)nc23)CC1 (stereo not shown) [33x] in the records?
< 5.00

Value lookup for pIC50; key = `Cc1ccc(-n2nc3c(N4CCC(C(=O)NCCCN(C)C)CC4)nnc(Cl)c3c2C)cc1`
5.11

---

# subject.of.test: human TLR9 (Homo sapiens)
# Construct: endogenous in cells; host or cells: primary human B cells (CD19 microbeads) from buffy coats of healthy donors
# Sequence (Q9NR96 26-1032): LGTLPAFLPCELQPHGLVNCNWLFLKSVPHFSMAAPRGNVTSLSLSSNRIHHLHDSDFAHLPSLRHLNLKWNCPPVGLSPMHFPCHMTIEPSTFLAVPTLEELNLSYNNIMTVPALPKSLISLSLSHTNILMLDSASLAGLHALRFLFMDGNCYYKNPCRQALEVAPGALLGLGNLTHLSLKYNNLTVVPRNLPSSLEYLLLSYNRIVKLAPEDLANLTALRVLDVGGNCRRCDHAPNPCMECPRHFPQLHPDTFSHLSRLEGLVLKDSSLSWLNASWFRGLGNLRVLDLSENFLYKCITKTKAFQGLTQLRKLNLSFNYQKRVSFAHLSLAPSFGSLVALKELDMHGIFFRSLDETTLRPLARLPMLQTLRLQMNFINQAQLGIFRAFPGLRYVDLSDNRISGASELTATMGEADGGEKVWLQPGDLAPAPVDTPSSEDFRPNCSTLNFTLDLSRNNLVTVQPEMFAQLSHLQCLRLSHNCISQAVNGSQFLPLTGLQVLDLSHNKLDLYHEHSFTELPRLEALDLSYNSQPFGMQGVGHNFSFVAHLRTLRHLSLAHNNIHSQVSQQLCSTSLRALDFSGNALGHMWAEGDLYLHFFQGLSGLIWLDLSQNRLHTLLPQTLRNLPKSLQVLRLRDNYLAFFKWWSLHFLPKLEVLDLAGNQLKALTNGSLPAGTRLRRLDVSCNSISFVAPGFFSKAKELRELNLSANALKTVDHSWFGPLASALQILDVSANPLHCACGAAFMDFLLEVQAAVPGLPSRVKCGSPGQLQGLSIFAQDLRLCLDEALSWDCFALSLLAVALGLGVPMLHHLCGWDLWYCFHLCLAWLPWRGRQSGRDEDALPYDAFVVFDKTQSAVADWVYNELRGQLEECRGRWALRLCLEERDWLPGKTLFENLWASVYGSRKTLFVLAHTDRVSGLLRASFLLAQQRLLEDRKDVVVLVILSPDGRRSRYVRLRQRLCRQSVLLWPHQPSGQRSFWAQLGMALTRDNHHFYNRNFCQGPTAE
# test: Inhibition of human TLR9 in human B cells (IL-6 ELISA)
# Type: cell-based
# measurement.conditions: human B cells, agonist 1018 ISS 1 μM, IL-6 readout, 48 hours; range about 0.01 to 10 μM; read-out: Human TLR9 IC50
Recorded pIC50 by entry
Answer as the number alone; pIC50 is minus log10 of concentration in mol/L.

Would you please look over these solved cases?
> print(dat)
                                   compound  quantitative.readout
1  CCCN1CCN(C(=O)C2CCCN(c3nnc(C)c4c(C)n(-c5ccccc5)nc34)C2)CC1 (centres unmarked) [63x]                  7.74
2  Cc1ccc(-n2cc3cncc(N4CCC(C(=O)NCCCN(C)C)CC4)c3n2)cc1                  8.15
3  Cc1ccc(-n2nc3c(N4CCC(C(=O)N5CCC6(CNC6)C5)CC4)nnc(C)c3c2C)cc1                  5.59
4  Cc1ccc(-n2nc3c(N4CCC(C(=O)NCCNC(C)C)CC4)nnc(C)c3c2C)cc1                  6.51
5  Cc1ccc(-n2nc3c(N4CCC(C(=O)NCCCN(C)C)CC4)nnc(-c4ccccc4)c3c2C)cc1                  5.43

Param item = `Cc1ccc(-n2nc3c(Cl)nnc(N4CCC(C(=O)NCCCN(C)C)CC4)c3c2C)cc1` ; retrieve measured pIC50.
4.97

What does the data say about its pIC50? Entry: `Cc1ccc(-c2nc3c(N4CCC(C(=O)NCCCN(C)C)CC4)cccc3n2C)cc1`
5.65

I have this compound here, `Cc1ccc(-n2nc3c(N4CCC(C(=O)NCCCCCc5ccccc5)CC4)nnc(C)c3c2C)cc1` , and I need its recorded pIC50.
6.37

---

# subject.of.test: human TLR8 (Homo sapiens)
# Construct: endogenous in cells; host or cells: primary human monocytes (CD14 microbeads) from buffy coats of healthy donors
# test: Inhibition of human TLR8 in human monocytes (TNF-alpha / IL-1 beta ELISA)
# Assay type: cell-based
# measurement.conditions: human monocytes, agonist ORN8L 100 μg/mL, IL-1 beta readout, 24 hours; read-out: Human TLR8 IC50 IL-1b
measure: pIC50
The read-out pIC50 is expressed as -log10 of concentration in moles per litre.

// solved cases for pIC50 follow
> print(dat)
                                   compound  quantitative.readout
1  Cc1ccc(-n2nc3c(N4CCC(C(=O)NCCCN5CCOCC5)CC4)nnc(C)c3c2C)cc1 [Compound No. 19x]                  6.13
2  CCCCN(CC)CCNC(=O)C1CCN(c2nnc(C)c3c(C)n(-c4ccccc4)nc23)CC1 [25x]                  5.34
3  CCN1CCN(C(=O)C2CCN(c3nnc(C)c4c(C)n(-c5ccc(C)cc5)nc34)CC2)CC1 [51x]                  6.48
4  CCCN1CCN(C(=O)C2CCCN(c3nnc(C)c4c(C)n(-c5ccccc5)nc34)C2)CC1 (stereo not shown) [63x]                  6.00

Entry under review: `Cc1ccc(-n2nc3c(N4CCC(C(=O)NC5CN(Cc6ccccc6)C5)CC4)nnc(C)c3c2C)cc1` . Reported pIC50?
6.00

What does the data say about its pIC50? Entry: `Cc1ccc(-n2nc3c(N4CCC(C(=O)NCCCN(C)Cc5ccccc5)CC4)nnc(C)c3c2C)cc1`
6.13

Any idea what its pIC50 is? The compound is `Cc1ccc(-n2nc3c(N4CCC(C(=O)N5CCN(Cc6ccccc6)CC5)CC4)nnc(C)c3c2C)cc1`
6.05

---

Parameter: IC50. Scope: all listed entries.
# subject.of.test: human TLR9 (Homo sapiens, UniProt Q9NR96)
# Construct: endogenous in cells; host or cells: primary human B cells (CD19 microbeads) from buffy coats of healthy donors
# Sequence (Q9NR96 26-1032): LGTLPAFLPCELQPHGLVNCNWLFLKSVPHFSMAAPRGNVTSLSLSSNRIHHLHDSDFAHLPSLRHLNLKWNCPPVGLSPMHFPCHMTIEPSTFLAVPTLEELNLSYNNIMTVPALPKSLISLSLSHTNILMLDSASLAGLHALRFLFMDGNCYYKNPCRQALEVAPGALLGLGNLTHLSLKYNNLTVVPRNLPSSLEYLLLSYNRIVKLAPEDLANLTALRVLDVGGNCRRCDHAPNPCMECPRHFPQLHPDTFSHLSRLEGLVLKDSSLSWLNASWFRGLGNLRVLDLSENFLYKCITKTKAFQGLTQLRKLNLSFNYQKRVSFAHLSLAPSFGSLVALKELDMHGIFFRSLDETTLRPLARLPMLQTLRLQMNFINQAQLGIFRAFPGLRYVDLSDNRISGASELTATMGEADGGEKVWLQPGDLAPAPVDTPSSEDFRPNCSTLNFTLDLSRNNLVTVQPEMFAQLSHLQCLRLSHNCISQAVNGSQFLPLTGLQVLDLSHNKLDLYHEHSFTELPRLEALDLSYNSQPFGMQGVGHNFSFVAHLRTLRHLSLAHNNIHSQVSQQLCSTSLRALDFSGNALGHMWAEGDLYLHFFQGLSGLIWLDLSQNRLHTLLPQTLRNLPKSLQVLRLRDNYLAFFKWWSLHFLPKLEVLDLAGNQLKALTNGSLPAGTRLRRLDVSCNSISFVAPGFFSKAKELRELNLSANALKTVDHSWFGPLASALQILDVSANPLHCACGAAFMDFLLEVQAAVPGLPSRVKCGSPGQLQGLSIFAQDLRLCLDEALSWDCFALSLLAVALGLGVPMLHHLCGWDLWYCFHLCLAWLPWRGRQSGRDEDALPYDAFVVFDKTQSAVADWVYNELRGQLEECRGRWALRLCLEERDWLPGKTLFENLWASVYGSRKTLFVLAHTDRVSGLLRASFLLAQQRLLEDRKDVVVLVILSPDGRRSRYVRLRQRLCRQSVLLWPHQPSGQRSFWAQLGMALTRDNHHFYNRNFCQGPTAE
# test: Inhibition of human TLR9 in human B cells (IL-6 ELISA)
# Type: cell-based
# measurement.conditions: human B cells, agonist 1018 ISS 1 μM, IL-6 readout, 48 hours; range about 0.01 to 10 μM; read-out: Human TLR9 IC50
Numeric only. Scale: nM

> print(dat)
                                   compound  result.unit  quantitative.readout
1  Cc1ccc(-n2nc3c(N4CCC(C(=O)NCCCN(C)C)CC4)nncc3c2C)cc1           nM                   133
2  Cc1ccc(-n2nc3c(N4CCC(C(=O)NCCCN(C)Cc5ccccc5)CC4)nnc(C)c3c2C)cc1           nM                    40
3  Cc1nnc(N2CCCC(C(=O)NCCCN3CCOCC3)C2)c2nn(-c3ccccc3)c(C)c12 (centres unmarked) [49x]           nM                    29

Checklist item: IC50 tested on human TLR9 (Homo sapiens, UniProt Q9NR96), entry `CCN(CC)C1CCN(C(=O)C2CCN(c3nncc4cn(-c5ccc(C)cc5)nc34)CC2)CC1` , value?
6

Form: Entry = `Cc1ccc(-n2nc3c(N4CCC(C(=O)NC5CN(Cc6ccccc6)C5)CC4)nnc(C)c3c2C)cc1` | System = human TLR9 (Homo sapiens, UniProt Q9NR96) | IC50 = ____
93
